Quick record: pIC50, trypsin (Bos taurus).
Units for pIC50: none; it is -log10 of a concentration expressed in mol/L.

smiles structure: N=C(N)Nc1ccc(C(=O)Oc2ccc(C(=O)OCC(N)=O)cc2)cc1
pIC50: 8.52

Record CN(C)C(=O)COC(=O)C=Cc1ccc(OC(=O)c2ccc(NC(=N)N)cc2)cc1 : what is its pIC50 with trypsin (Bos taurus)?
10.05

// same read-out, input: CCCN(CCC)C(=O)COC(=O)c1ccc(OC(=O)c2ccc(NC(=N)N)cc2)cc1
8.85

Continue with CN(C)C(=O)COC(=O)Cc1ccc(OC(=O)c2ccc(NC(=N)N)cc2)cc1
8.07

# repeat for CNC(=O)COC(=O)c1ccc(OC(=O)c2ccc(NC(=N)N)cc2)cc1
8.46

====

target: plasmin (Homo sapiens); construct: from tissue; experiment: Anti-plasmin: 50% inhibition of plasmin in vitro (euglobulin/streptokinase/fibrinogen system); type: biochemical; settings: 37° C., 30 minutes, borate saline buffer pH 7.4, human euglobulin, streptokinase, fibrinogen; read-out: 50% Inhibition Concentration, Anti-Plasmin
Sequence (P00747 581-810 limits assumed): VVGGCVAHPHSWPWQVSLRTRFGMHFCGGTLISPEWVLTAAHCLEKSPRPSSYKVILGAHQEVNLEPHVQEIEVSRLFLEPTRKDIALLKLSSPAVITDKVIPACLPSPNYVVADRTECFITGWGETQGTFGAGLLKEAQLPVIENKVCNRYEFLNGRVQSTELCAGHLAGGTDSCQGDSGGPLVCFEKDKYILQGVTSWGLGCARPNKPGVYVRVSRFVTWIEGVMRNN
Sequence (P00747 97-580 partner limits assumed): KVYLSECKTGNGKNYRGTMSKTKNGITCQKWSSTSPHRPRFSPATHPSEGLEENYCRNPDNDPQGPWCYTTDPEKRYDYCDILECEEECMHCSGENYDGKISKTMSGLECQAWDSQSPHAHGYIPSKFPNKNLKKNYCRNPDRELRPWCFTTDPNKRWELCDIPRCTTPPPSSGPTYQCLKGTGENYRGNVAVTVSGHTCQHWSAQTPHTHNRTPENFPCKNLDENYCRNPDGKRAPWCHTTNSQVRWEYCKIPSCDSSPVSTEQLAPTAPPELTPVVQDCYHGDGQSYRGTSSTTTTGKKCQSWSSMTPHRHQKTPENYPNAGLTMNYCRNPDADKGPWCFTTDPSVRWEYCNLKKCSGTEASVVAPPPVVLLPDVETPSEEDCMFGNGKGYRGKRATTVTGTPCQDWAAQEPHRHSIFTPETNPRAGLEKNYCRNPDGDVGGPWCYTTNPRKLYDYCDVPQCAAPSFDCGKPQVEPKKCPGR
pIC50: −log10 of the molar value.
Answer false if pIC50 is under 8, and true if it is 8 or more.

Answered examples (4):
smiles structure: CCCN(CCC)C(=O)COC(=O)c1ccc(OC(=O)c2ccc(NC(=N)N)cc2)cc1
assigned class: true
--
smiles structure: CNC(=O)COC(=O)c1ccc(OC(=O)c2ccc(NC(=N)N)cc2)cc1
assigned class: true
--
smiles structure: CN(C)C(=O)COC(=O)c1ccc(OC(=O)c2ccc(NC(=N)N)cc2)cc1
assigned class: true
--
smiles structure: CN(C)C(=O)COC(=O)CCc1ccc(OC(=O)c2ccc(NC(=N)N)cc2)cc1
assigned class: false

# ---- query compound ----
Dear colleague, could you confirm whether CN(C)C(=O)COC(=O)C=Cc1ccc(OC(=O)c2ccc(NC(=N)N)cc2)cc1 has pIC50 at or above 8?
false
